- EXPERIMENTAL_PROTOCOL: growth inhibition of GSK3B-pretreated HCT116 cells – cell-based, CellTiter-Glo, 0.2 to 20 µM (AID 1117336)
- DETAILS: HCT116 viability after GSK3B inhibitor, at 20 µM, hits give high values
PROPERTY_LABEL: viability decrease (%)
Give bare numbers, in %.

Below: 6 compounds and their reported viability decrease.
>  <COMPOUND>
CCOC(=O)OC(C)OC(=O)[C@@H]1N2C(=O)[C@@H](NC(=O)[C@H](N)c3ccccc3)[C@H]2SC1(C)C (some centres undefined)

>  <PROPERTY_LABEL>
viability decrease

>  <MEASURED>
-28.2

$$$$
>  <COMPOUND>
CN1CCN(c2cc3c(cc2F)c(=O)c(C(=O)O)cn3-c2ccc(F)cc2)CC1

>  <PROPERTY_LABEL>
viability decrease

>  <MEASURED>
9.9

$$$$
>  <COMPOUND>
CN1CCCN=C1COC(=O)C(O)(c1ccccc1)C1CCCCC1 (centres undefined)

>  <PROPERTY_LABEL>
viability decrease

>  <MEASURED>
-83

$$$$
>  <COMPOUND>
CN1[C@@H]2CC[C@H]1CC(OC(=O)C(O)c1ccccc1)C2 (some centres undefined)

>  <PROPERTY_LABEL>
viability decrease

>  <MEASURED>
15

$$$$
>  <COMPOUND>
C=C1c2cccc(O)c2C(O)=C2C(=O)[C@]3(O)C(O)=C(C(N)=O)C(=O)[C@@H](N(C)C)[C@@H]3[C@@H](O)[C@H]12

>  <PROPERTY_LABEL>
viability decrease

>  <MEASURED>
-253

$$$$
>  <COMPOUND>
CC(C)NCC(O)c1ccc2ccccc2c1 (centres undefined)

>  <PROPERTY_LABEL>
viability decrease

>  <MEASURED>
6.6

$$$$

Field: viability decrease. Fill in for each record below.
1. C=CCc1ccc(O)c(OC)c1
2. Cc1cc(=O)n(-c2ccccc2)n1C
3. CCOC(=O)C1=C(C)NC(C)=C(C(=O)OC)C1c1cccc(Cl)c1Cl (centres undefined)
4. CC(=O)OCC(COC(C)=O)OC(C)=O
5. CCN(CC)CCOCCOC(=O)C1(c2ccccc2)CCCC1
6. COC(=O)Nc1nc2ccc(C(=O)c3cccs3)cc2[nH]1
7. CCCc1c(OCCCCc2nn[nH]n2)ccc(C(C)=O)c1O
8. C[C@H]1COc2c(C3(N)CC3)c(F)cc3c(=O)c(C(=O)O)cn1c23

(A)
1. 22.5
2. -26.3
3. 113
4. -25.5
5. 19.3
6. 69.2
7. 49.9
8. -4.4

Please give viability decrease, item by item, for the list that follows.
1. CCn1cc(C(=O)O)c(=O)c2cc(F)c(N3CCNC(C)C3)c(F)c21 (centres undefined)
2. CC(c1cc2ccccc2s1)N(O)C(N)=O (centres undefined)
3. C[C@]12CC[C@@H]3c4ccc(O)cc4CC[C@H]3[C@@H]1CCC2=O
4. CCOC(N)=O

(A)
15.3
-6.5
-6
-12.6

Report viability decrease for each item below.
1. O=C(O)CCCCC1CCSS1 (centres undefined)
2. Cn1c(=O)c2c(ncn2CCO)n(C)c1=O
3. Cc1oncc1C(=O)Nc1ccc(C(F)(F)F)cc1
4. c1ccc(CN(CC2=NCCN2)c2ccccc2)cc1
5. Cc1cc(CC(=O)O)n(C)c1C(=O)c1ccc(Cl)cc1

(A)
1. 3.2
2. 15.8
3. 40
4. -68.5
5. -27.2

(Q) GET /values?readout=viability decrease&item= Clc1ccc2c(c1)CCc1cccnc1C2=C1CCNCC1
(A) 50.4

###

- Test system: Hepatitis C virus NS3 helicase
- EXPERIMENTAL_PROTOCOL: blockers of NS3h binding to DNA – biochemical, fluorescence polarization, NIH Clinical Collection, primary screen (AID 743270)
- DETAILS: NS3 helicase binding to Cy5-dT15 DNA, hits give high values, concentration not given here
PROPERTY_LABEL: inhibition (%)
One number for each entry, in %.

>  <COMPOUND>
CN(CCCN1c2ccccc2CCc2ccccc21)CC(=O)c1ccc(Cl)cc1

>  <RESULT_UNITS>
%

>  <MEASURED>
7.52

$$$$
>  <COMPOUND>
CC(Cc1ccccc1)(NC(=O)CN)c1ccccc1 (stereo unspecified)

>  <RESULT_UNITS>
%

>  <MEASURED>
5.15

$$$$
>  <COMPOUND>
CN(C)CCCSc1ccccc1NC(=O)/C=C/c1ccccc1

>  <RESULT_UNITS>
%

>  <MEASURED>
0.4

$$$$

# batch size: 3; output inhibition per entry
1. CN(C)CC[C@@H](c1ccc(Cl)cc1)c1ccccn1
2. COc1cc(OC)c(C(=O)CCCN2CCCC2)c(OC)c1
3. COCc1c(C(C)C)nc(C(C)C)c(/C=C/[C@@H](O)C[C@@H](O)CC(=O)O)c1-c1ccc(F)cc1

(A)
1: -2.84; 2: -3.56; 3: -4.36

###

- EXPERIMENTAL_PROTOCOL: inhibition of endothelial tube formation, primary screen, imaging, VEGF stimulated, CD31 staining, tube area, NPC library (AID 1117340)
- DETAILS: VEGF-stimulated ADSC/ECFC co-culture, at 10 µM, hits give high values
Calls of active or inactive are those of the source.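 How the source made its calls: active means compound that reduces growth-factor-driven endothelial tube area in a mixed cell culture, no cutoff stated; inactive means the rest.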
Assign tube area decrease to each entry below.

>  <MOLECULE>
CC(=O)Nc1c(I)cc(I)c(C(=O)O)c1I

>  <tube area decrease>
34.2% (inactive)

$$$$
>  <MOLECULE>
NC(=O)NO

>  <tube area decrease>
4.9% (inactive)

$$$$
>  <MOLECULE>
CCCCC(CC)CN1CN(CC(CC)CCCC)CC(C)(N)C1 (stereo not drawn)

>  <tube area decrease>
16% (inactive)

$$$$
>  <MOLECULE>
CNCC(O)c1ccc(O)c(O)c1 (stereo not drawn)

>  <tube area decrease>
-33.6% (inactive)

$$$$
>  <MOLECULE>
Cc1c(Cl)cccc1Nc1ccccc1C(=O)O

>  <tube area decrease>
-8.8% (inactive)

$$$$

Batch request: tube area decrease per item, same order as input.
1. C[C@H](N)[C@H](O)c1cccc(O)c1
2. COc1cc(OC)cc(OC)c1
3. COC(=O)Nc1nc2ccc(S(=O)c3ccccc3)cc2[nH]1 (stereo not drawn)
4. Nc1c2c(nc3ccccc13)CCCC2O (stereo not drawn)
5. O=C(O)c1ccccc1Nc1cccc(C(F)(F)F)c1

(A)
["12.1% (inactive)", "7.3% (inactive)", "110% (active)", "16.1% (inactive)", "47.5% (active)"]

Dear colleague, could you send me tube area decrease for each of the items below? Thanks.
1. O=C(Nc1cccc(C2=NCCN2)c1)Nc1cccc(C2=NCCN2)c1
2. NC(N)=NC(=O)Cc1c(Cl)cccc1Cl
3. CCc1oc2ccccc2c1C(=O)c1cc(Br)c(O)c(Br)c1
4. CN1CCN(C2=Nc3cc(F)ccc3Cc3ccccc32)CC1
5. COc1ccccc1OCC(O)CN1CCN(CC(=O)Nc2c(C)cccc2C)CC1 (stereo not drawn)
6. Cc1cccc(C)c1OCC(C)N (stereo not drawn)
7. COc1ccc2nc(S(=O)Cc3ncc(C)c(OC)c3C)[nH]c2c1 (stereo not drawn)
8. CC(NCCC(c1ccccc1)c1ccccc1)c1ccccc1 (stereo not drawn)

(A)
1: -57.4% (inactive); 2: 11.5% (inactive); 3: 101% (active); 4: 13% (inactive); 5: 0.2% (inactive); 6: -2% (inactive); 7: 29.3% (inactive); 8: 15.4% (inactive)

Provide tube area decrease for all items below, preserving their order.
1. CCOC(=O)c1ccc(N)cc1
2. CN(C)C(=O)Nc1ccc(Cl)c(Cl)c1

(A)
1: 4% (inactive); 2: -17.1% (inactive)

Would you mind listing tube area decrease for each of the following molecules?
1. Cc1cccc(C)c1NC(=O)C(C)N (stereo not drawn)
2. CC(C)NCC(O)c1ccc2ccccc2c1 (stereo not drawn)
3. CN1CCN(c2cc3c(cc2F)c(=O)c(C(=O)O)cn3-c2ccc(F)cc2)CC1
4. Clc1ccc(C(c2ccccc2Cl)C(Cl)Cl)cc1 (stereo not drawn)
5. CO[C@@]1(NC(=O)C(C(=O)O)c2ccc(O)cc2)C(=O)N2C(C(=O)O)=C(CSc3nnnn3C)CO[C@@H]21 (stereo partly drawn)
6. COc1ccc(CN2CCN(C(c3ccc(F)cc3)c3ccc(F)cc3)CC2)c(OC)c1OC

(A)
["-7.9% (inactive)", "-11.2% (inactive)", "-7.2% (inactive)", "6.6% (inactive)", "10.2% (inactive)", "-1.5% (inactive)"]

Below is a list of molecules. For each, state its recorded tube area decrease.
1. C[C@@H]1C[C@H]2[C@@H]3C[C@H](F)C4=CC(=O)C(Cl)=C[C@]4(C)[C@@]3(F)[C@@H](O)C[C@]2(C)[C@@]1(O)C(=O)CO
2. COc1cc(OC)c(C(=O)CCCN2CCCC2)c(OC)c1
3. CCCOc1ccccc1-c1nc2n[nH]nc2c(=O)[nH]1

(A)
1. -1.8% (inactive)
2. 17.2% (inactive)
3. -11.3% (inactive)

Give measured tube area decrease for every item shown.
1. CC(=O)[C@@]1(O)CC[C@H]2[C@@H]3C[C@H](C)C4=CC(=O)C=C[C@]4(C)[C@@]3(F)[C@@H](O)C[C@@]21C
2. N[C@@H](Cc1ccc(O)c(O)c1)C(=O)O
3. COc1cc2nc(N3CCN(C(=O)C4CCCO4)CC3)nc(N)c2cc1OC (stereo not drawn)
4. CCN1CCN(C(=O)N[C@@H](C(=O)N[C@@H]2C(=O)N3C(C(=O)O)=C(CSc4nnnn4C)CS[C@H]23)c2ccc(O)cc2)C(=O)C1=O
5. Nc1ccn([C@H]2CC[C@@H](CO)O2)c(=O)n1

(A)
["-16% (inactive)", "-13.9% (inactive)", "9.3% (inactive)", "-32.8% (inactive)", "-2.2% (inactive)"]

I have 5 molecules here; please give me tube area decrease for each one.
1. CN(C)CC[C@@H](c1ccc(Cl)cc1)c1ccccn1
2. Cc1ccc(NC(=O)c2ccc(CN3CCN(C)CC3)cc2)cc1Nc1nccc(-c2cccnc2)n1
3. Clc1ccccc1C(c1ccccc1)(c1ccccc1)n1ccnc1
4. C#CCN(C)Cc1ccccc1
5. CCCCc1ccc2nc(NC(=O)OC)[nH]c2c1

(A)
-4% (inactive)
-31% (inactive)
73.1% (active)
3.1% (inactive)
108% (active)

Give tube area decrease for all molecules that follow.
1. CCCN1CCCC[C@H]1C(=O)Nc1c(C)cccc1C
2. CC(Cc1ccccc1)(NC(=O)CN)c1ccccc1 (stereo not drawn)
3. CCCCNc1ccc(C(=O)OCCN(C)C)cc1
4. CN(CCOc1ccc(NS(C)(=O)=O)cc1)CCc1ccc(NS(C)(=O)=O)cc1
5. CC(=O)Nc1cccc(O)c1
6. CCN(CC)CCOC(=O)C(c1ccccc1)c1ccccc1

(A)
-2.1% (inactive)
-10.6% (inactive)
9.8% (inactive)
3.3% (active)
-19.6% (inactive)
17.8% (inactive)
